testedTarget: UniProt:P47824
assayMethodText: The compound was evaluated for antagonist activity against P2X purinoceptor 1 (P2X1) receptor from rat vas deferens
Type: functional
Sequence (P47824 whole entry, looked up): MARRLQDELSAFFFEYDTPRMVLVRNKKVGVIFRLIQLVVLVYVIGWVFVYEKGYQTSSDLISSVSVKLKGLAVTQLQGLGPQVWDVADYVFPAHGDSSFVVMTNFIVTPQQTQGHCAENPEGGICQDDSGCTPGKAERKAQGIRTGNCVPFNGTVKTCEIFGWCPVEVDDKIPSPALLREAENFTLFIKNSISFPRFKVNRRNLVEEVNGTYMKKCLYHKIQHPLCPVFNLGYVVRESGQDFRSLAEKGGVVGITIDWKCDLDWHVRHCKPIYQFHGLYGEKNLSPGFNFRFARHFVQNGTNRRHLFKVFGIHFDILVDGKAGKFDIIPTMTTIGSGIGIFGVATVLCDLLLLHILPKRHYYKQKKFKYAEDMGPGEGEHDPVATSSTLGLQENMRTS
propertyLabel: pIC50
In textbook form, pIC50 equals minus log to base ten of the concentration in mol/L.

Problem: # return recorded pIC50 for entry `Cc1nc(/N=N/c2ccc(C(=O)O)c(Cl)c2)c(COP(=O)(O)O)c(C=O)c1O`
Result: 5.02

###

testedTarget: UniProt:P47900
assayMethodText: Evaluated for agonist activity against phospholipase C coupled P2Y purinoceptor 1 (P2Y1) of human erythrocytes
pEC50: −log10 of the molar value.
propertyLabel: pEC50

See these solved cases before continuing.
| compound | pEC50 |
| --- | --- |
| Cc1nc(/N=N/c2ccc(S(=O)(=O)O)cc2S(=O)(=O)O)c(COP(=O)(O)O)c(C=O)c1O | 6.00 |
| O=c1ccn([C@@H]2O[C@H](COP(=O)(O)OP(=O)(O)O)[C@@H](O)[C@H]2O)c(=O)[nH]1 [URIDINE_DIPHOSPHATE] | < 4.00 |

Next compound, please.
Problem: Write pEC50 of O=c1ccn([C@@H]2O[C@H](COP(=O)(O)OP(=O)(O)OP(=O)(O)O)[C@@H](O)[C@H]2O)c(=O)[nH]1 [URIDINE TRIPHOSPHATE] ; system used: UniProt:P47900
Result: < 4.00

###

testedTarget: P2X purinoceptor 1 (Rattus norvegicus)
assayMethodText: The compound was evaluated for antagonist activity against recombinant rat P2X purinoceptor 1 (P2X1) at 1 uM, expressed in Xenopus oocytes
Type: functional, cell-based, Oocyte
Sequence (P47824 whole entry): as the sequence (P47824 whole entry, looked up) above
propertyLabel: log10(EC50) (log10 of the value in nM)
// units: nM (pre-log); metric: EC50; scale: log10

| smilesRecord | testedTarget | propertyLabel | experimentalValue |
| --- | --- | --- | --- |
| Cc1ccc(C(=O)Nc2ccc(S(=O)(=O)O)c3cc(S(=O)(=O)O)cc(S(=O)(=O)O)c23)cc1NC(=O)c1cccc(NC(=O)Nc2cccc(C(=O)Nc3cc(C(=O)Nc4ccc(S(=O)(=O)O)c5cc(S(=O)(=O)O)cc(S(=O)(=O)O)c45)ccc3C)c2)c1 | P2X purinoceptor 1 (Rattus norvegicus) | log10(EC50) | 3.00 |
| Cc1nc(/N=N/c2ccc(S(=O)(=O)O)cc2S(=O)(=O)O)c(COP(=O)(O)O)c(C=O)c1O | P2X purinoceptor 1 (Rattus norvegicus) | log10(EC50) | 2.00 |
| Cc1nc(/N=N/c2cc(CP(=O)(O)O)cc(CP(=O)(O)O)c2)c(COP(=O)(O)O)c(C=O)c1O | P2X purinoceptor 1 (Rattus norvegicus) | log10(EC50) | 0.70 |
| CCCCCCSc1nc(N)c2ncn([C@@H]3O[C@H](COP(=O)(O)O)[C@@H](O)[C@H]3O)c2n1 | P2X purinoceptor 1 (Rattus norvegicus) | log10(EC50) | 2.92 |

Problem: Give log10(EC50) for this entry on P2X purinoceptor 1 (Rattus norvegicus): `Nc1ccc(CCSc2nc(N)c3ncn([C@@H]4O[C@H](COP(=O)(O)OP(=O)(O)OP(=O)(O)O)[C@@H](O)[C@H]4O)c3n2)cc1`
Result: 1.99

###

testedTarget: P2Y purinoceptor 6 (Homo sapiens)
Sequence (Q15077 whole entry): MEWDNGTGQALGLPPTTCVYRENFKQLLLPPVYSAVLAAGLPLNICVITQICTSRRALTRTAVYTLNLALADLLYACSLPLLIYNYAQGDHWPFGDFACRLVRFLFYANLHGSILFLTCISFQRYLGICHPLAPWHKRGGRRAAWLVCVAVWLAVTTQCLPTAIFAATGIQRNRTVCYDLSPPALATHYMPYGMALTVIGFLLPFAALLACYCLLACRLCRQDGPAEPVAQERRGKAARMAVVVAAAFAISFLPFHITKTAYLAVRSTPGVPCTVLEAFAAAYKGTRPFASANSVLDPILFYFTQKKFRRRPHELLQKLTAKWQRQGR
assayMethodText: The compound was evaluated for agonist activity against phospholipase C coupled recombinant human P2Y purinoceptor 6 (P2Y6)
Listed below: EC50 values for each entry.
Note: unit µM is implicit; provide only the numeric part.

Consider the following illustrative entries.
| compound | testedTarget | experimentalValue |
| --- | --- | --- |
| CSc1nc(N)c2ncn([C@@H]3O[C@H](COP(=O)(O)OP(=O)(O)OP(=O)(O)O)[C@@H](O)[C@H]3O)c2n1 | P2Y purinoceptor 6 (Homo sapiens) | 100 |
| O=c1ccn([C@@H]2O[C@H](COP(=O)(O)OP(=O)(O)OP(=O)(O)O)[C@@H](O)[C@H]2O)c(=O)[nH]1 [URIDINE TRIPHOSPHATE] | P2Y purinoceptor 6 (Homo sapiens) | 6 |

Problem: Annotate the compound O=c1ccn([C@@H]2O[C@H](COP(=O)(O)OP(=O)(O)O)[C@@H](O)[C@H]2O)c(=O)[nH]1 [URIDINE_DIPHOSPHATE] with its measured EC50.
Result: 0.3

###

testedTarget: UniProt:Q99571
Sequence (Q99571 whole entry): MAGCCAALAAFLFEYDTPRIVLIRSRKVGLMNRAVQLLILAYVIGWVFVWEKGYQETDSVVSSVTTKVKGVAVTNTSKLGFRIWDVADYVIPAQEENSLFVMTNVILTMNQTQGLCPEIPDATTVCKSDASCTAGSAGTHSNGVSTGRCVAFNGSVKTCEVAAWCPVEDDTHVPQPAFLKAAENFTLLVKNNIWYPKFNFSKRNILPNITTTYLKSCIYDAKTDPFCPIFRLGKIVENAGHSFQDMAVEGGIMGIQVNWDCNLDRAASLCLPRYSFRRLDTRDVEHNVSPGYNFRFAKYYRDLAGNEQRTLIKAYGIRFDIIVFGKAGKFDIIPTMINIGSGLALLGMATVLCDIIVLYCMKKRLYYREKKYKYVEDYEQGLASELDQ
assayMethodText: Antagonist activity against recombinant human P2X purinoceptor 4 (P2X4)
Assay type: functional
Lab note: anything with EC50 below 1 µM is marked 1.0; values at 1 µM or higher are marked 0.0.

Reference set, count: 3
| molecule | testedTarget | labelValue |
| --- | --- | --- |
| Nc1ncnc2c1ncn2[C@@H]1O[C@H](COP(=O)(O)OP(=O)(O)OP(=O)(O)O)[C@@H](O)[C@H]1O [ADENOSINE TRIPHOSPHATE] | UniProt:Q99571 | 1.0 |
| Nc1ncnc2c1ncn2[C@@H]1O[C@H](COP(=O)(O)OP(=O)(O)S)[C@@H](O)[C@H]1O (stereo partly specified) | UniProt:Q99571 | 0.0 |
| Nc1c(S(=O)(=O)O)cc(Nc2ccc(Nc3nc(Cl)nc(Nc4cccc(S(=O)(=O)O)c4)n3)c(S(=O)(=O)O)c2)c2c1C(=O)c1ccccc1C2=O | UniProt:Q99571 | 0.0 |

Consider the additional molecule presented here.
Problem: Identify whether the molecule `CN([C@@H](Cc1ccc(OS(=O)(=O)c2cccc3cnccc23)cc1)C(=O)N1CCN(c2ccccc2)CC1)S(=O)(=O)c1cccc2cnccc12` records EC50 below 1 µM.
Result: 0.0

###

testedTarget: P2X purinoceptor 7 (Rattus norvegicus)
Sequence (Q64663 whole entry): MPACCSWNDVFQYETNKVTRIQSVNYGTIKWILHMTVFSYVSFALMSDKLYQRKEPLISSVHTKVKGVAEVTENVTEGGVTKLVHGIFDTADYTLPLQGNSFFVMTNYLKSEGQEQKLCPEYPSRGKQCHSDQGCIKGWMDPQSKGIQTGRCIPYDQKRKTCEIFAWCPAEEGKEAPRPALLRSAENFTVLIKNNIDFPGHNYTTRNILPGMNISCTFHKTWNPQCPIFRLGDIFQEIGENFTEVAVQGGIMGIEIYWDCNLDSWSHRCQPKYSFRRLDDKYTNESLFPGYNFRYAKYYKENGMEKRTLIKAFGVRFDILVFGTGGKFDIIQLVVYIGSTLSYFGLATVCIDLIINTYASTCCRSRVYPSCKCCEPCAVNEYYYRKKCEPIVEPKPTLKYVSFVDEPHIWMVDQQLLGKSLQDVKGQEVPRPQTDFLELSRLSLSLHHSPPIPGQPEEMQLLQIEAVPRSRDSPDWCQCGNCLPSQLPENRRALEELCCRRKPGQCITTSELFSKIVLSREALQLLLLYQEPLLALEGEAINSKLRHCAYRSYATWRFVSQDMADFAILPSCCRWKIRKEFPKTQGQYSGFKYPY
assayMethodText: The compound was evaluated for antagonist activity against recombinant rat P2X purinoceptor 7 (P2X7)
propertyLabel: EC50 (µM)
# output: bare number, implied unit µM

Problem: Retrieve EC50 measured for `Cc1nc(/N=N/c2ccc(S(=O)(=O)O)cc2S(=O)(=O)O)c(COP(=O)(O)O)c(C=O)c1O` and print it.
Result: 62

###

testedTarget: P2X purinoceptor 1 (Homo sapiens, UniProt P51575)
assayMethodText: The compound was evaluated for antagonist activity against recombinant human P2X purinoceptor 1 (P2X1 )
propertyLabel: IC50
# output: numeric value plus its unit

Problem: Entry `O=C(Nc1cccc(C(=O)Nc2ccc(S(=O)(=O)O)c3cc(S(=O)(=O)O)cc(S(=O)(=O)O)c23)c1)Nc1cccc(C(=O)Nc2ccc(S(=O)(=O)O)c3cc(S(=O)(=O)O)cc(S(=O)(=O)O)c23)c1` needs its IC50 filled in; supply it.
Result: 210 nM

###

testedTarget: P2Y purinoceptor 1 (Homo sapiens, UniProt P47900)
Sequence (P47900 whole entry): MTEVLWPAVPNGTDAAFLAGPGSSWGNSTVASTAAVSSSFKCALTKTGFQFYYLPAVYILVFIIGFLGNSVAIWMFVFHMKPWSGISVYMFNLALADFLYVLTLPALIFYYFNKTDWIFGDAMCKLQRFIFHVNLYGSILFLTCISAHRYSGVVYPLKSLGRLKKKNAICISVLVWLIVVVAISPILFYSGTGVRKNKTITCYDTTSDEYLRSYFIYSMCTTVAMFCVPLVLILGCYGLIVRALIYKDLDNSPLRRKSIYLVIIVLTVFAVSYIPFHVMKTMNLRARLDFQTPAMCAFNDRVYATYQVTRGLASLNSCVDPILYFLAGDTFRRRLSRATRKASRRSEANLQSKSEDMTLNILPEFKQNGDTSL
pKd: −log10 of the molar value.
propertyLabel: pKd

Problem: Look up and state reported pKd for `C=CS(=O)(=O)c1cccc(Nc2cc(S(=O)(=O)O)c(N)c3c2C(=O)c2ccccc2C3=O)c1`
Result: < 4.00

###

testedTarget: P2X purinoceptor 1 (Rattus norvegicus)
assayMethodText: The compound was evaluated for antagonist activity against recombinant rat P2X purinoceptor 1 (P2X1)
Type: functional
pEC50: −log10 of the molar value.
Given measured pEC50, output Criterion met if it is greater than or equal to 6 and Criterion not met if not.

Consider the worked cases shown below.
| compound | labelValue |
| --- | --- |
| O=c1[nH]cnc2c1ncn2[C@@H]1O[C@H](COP(=O)(O)OP(=O)(O)OP(=O)(O)OP(=O)(O)OP(=O)(O)OC[C@H]2O[C@@H](n3cnc4c(=O)[nH]cnc43)[C@H](O)[C@@H]2O)[C@@H](O)[C@H]1O | Criterion met |
| Cc1nc(/N=N/c2cc(S(=O)(=O)O)ccc2S(=O)(=O)O)c(COP(=O)(O)O)c(C=O)c1O | Criterion met |
| Cc1ncc(COP(=O)(O)O)c(C=O)c1O [PYRIDOXAL PHOSPHATE ANHYDROUS] | Criterion not met |
| Cc1nc(/N=N/c2cc(S(=O)(=O)O)c3cc([N+](=O)[O-])cc(S(=O)(=O)O)c3c2)c(COP(=O)(O)O)c(C=O)c1O | Criterion met |

Now consider the entry below.
Problem: Check the entry `Cc1ncc2c(c1O)COP(=O)(O)OC2` : does pEC50 equal or exceed 6?
Result: Criterion not met

###

testedTarget: UniProtKB Q9UBL9
Sequence (Q9UBL9 whole entry): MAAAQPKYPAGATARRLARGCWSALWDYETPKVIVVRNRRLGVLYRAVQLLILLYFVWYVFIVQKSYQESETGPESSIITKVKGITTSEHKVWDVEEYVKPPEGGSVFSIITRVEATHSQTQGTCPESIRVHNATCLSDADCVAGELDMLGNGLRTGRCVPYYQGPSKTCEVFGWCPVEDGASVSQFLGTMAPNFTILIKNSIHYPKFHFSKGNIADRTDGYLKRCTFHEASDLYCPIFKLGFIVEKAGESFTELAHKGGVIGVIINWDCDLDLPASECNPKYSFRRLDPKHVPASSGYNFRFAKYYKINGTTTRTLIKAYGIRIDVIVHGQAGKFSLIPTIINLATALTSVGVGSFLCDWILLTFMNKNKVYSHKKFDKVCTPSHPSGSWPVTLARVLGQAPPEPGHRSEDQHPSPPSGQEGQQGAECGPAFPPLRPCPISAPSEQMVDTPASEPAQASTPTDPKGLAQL
assayMethodText: The compound was evaluated for antagonist activity against recombinant human receptor P2X purinoceptor 2 (P2X2 )
Type: functional
propertyLabel: EC50 (µM)
Reply with just the number (in µM).

Problem: Consider the compound Nc1ncnc2c1ncn2[C@@H]1O[C@H](COP(=O)(O)OP(=O)(O)OP(=O)(O)OP(=O)(O)OC[C@H]2O[C@@H](n3cnc4c(N)ncnc43)[C@H](O)[C@@H]2O)[C@@H](O)[C@H]1O [DIADENOSINE TETRAPHOSPHATE] and give its recorded EC50.
Result: 15

###

testedTarget: P2X purinoceptor 1 (Homo sapiens)
Sequence (P51575 whole entry): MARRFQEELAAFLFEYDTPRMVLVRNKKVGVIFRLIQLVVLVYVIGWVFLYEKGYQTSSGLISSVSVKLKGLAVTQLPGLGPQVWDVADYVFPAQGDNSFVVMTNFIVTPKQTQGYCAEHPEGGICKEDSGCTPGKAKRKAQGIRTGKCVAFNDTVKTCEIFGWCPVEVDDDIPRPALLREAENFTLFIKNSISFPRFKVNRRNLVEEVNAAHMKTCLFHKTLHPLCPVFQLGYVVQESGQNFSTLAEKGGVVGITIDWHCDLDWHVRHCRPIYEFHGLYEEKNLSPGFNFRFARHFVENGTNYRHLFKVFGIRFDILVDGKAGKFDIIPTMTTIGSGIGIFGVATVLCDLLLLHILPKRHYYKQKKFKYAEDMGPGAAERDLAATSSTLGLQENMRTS
assayMethodText: Antagonist activity against recombinant human P2X purinoceptor 1 (P2X1 )
Lab note: anything with EC50 below 200 nM is marked true; values at 200 nM or higher are marked false.

| molecule | labelValue |
| --- | --- |
| Nc1ncnc2c1ncn2[C@@H]1O[C@H](COP(=O)(O)OP(=O)(O)O)[C@@H](O)[C@H]1O [ADENOSINE DIPHOSPHATE] | false |

Problem: Please indicate whether the reported EC50 of Nc1ncnc2c1ncn2[C@@H]1O[C@H](COP(=O)(O)OP(=O)(O)OP(=O)(O)OP(=O)(O)OC[C@H]2O[C@@H](n3cnc4c(N)ncnc43)[C@H](O)[C@@H]2O)[C@@H](O)[C@H]1O [DIADENOSINE TETRAPHOSPHATE] is strictly below 200 nM.
Result: true

Problem: Record Nc1ncnc2c1ncn2[C@@H]1O[C@H](COP(=O)(O)OP(=O)(O)OP(=O)(O)O)[C@@H](O)[C@H]1O [ADENOSINE TRIPHOSPHATE] : is its EC50 strictly below 200 nM?
Result: true

Problem: Is EC50 strictly under 200 nM for the entry `CNc1ncnc2c1ncn2[C@H]1C[C@H](OP(=O)(O)O)[C@@H](COP(=O)(O)O)O1` ?
Result: false
